Taken from ChEMBL document CHEMBL2021885.

Quick reference: GI50 of the listed items.
Test system: K562
Assay: cells
Conditions: Homo sapiens, K562, 72 h
Description: Antiproliferative activity against human K562 cells after 72 hrs by Alamar blue assay

| chemical_string | GI50 [nM] |
| --- | --- |
| N[C@@H](CSC(c1ccccc1)(c1ccccc1)c1cccc(O)c1)C(=O)O | 2560 |
| N[C@@H](CSC(c1ccccc1)(c1ccccc1)c1ccc2ccccc2c1)C(=O)O | 247 |
| CNC(=O)c1ccc(C(SCCN)(c2ccccc2)c2ccccc2)cc1 | 3950 |
| CS(=O)(=O)c1ccc(C(SCCN)(c2ccccc2)c2ccccc2)cc1 | 2740 |
| NCCCC(c1ccccc1)(c1ccccc1)c1cccc(Cl)c1 | 596 |
| CSc1cccc(C(SCCN)(c2ccccc2)c2ccccc2)c1 | 1470 |
| CNC(=O)c1cccc(C(SCCN)(c2ccccc2)c2ccccc2)c1 | 982 |
| CC(=O)c1cccc(C(SC[C@H](N)C(=O)O)(c2ccccc2)c2ccccc2)c1 | 964 |
| CC(=O)c1ccc(C(SC[C@H](N)C(=O)O)(c2ccccc2)c2ccccc2)cc1 | 4270 |
| CC(=O)c1ccc(C(SCCN)(c2ccccc2)c2ccccc2)cc1 | 705 |
| NCCSC(c1ccccc1)(c1ccccc1)c1ccc(C(N)=O)cc1 | 4340 |
| Cc1ccc(C(CC[C@@H](N)C(=O)O)(c2ccccc2)c2ccccc2)cc1 | 82 |
| NCCSC(c1ccccc1)(c1ccccc1)c1cccc(C(=O)O)c1 | 2140 |
| CC(=O)NCc1ccc(C(SCCN)(c2ccccc2)c2ccccc2)cc1 | 2900 |
| Cc1ccc(C(SC[C@H](N)C(=O)O)(c2ccccc2)c2ccccc2)cc1 | 242 |
| NCCSC(c1ccccc1)(c1ccccc1)c1ccc(CO)cc1 | 783 |

###

Assay: Antiproliferative activity against human hTERT-HME1 cells after 72 hrs by Alamar blue assay
Format: cell-based
Quick reference: GI50 at 72 h of the listed items.
recorded_endpoint: GI50 at 72 h (nM)

| molecule | recorded_endpoint | unit_label | quantitative_readout |
| --- | --- | --- | --- |
| N[C@H](CCC(c1ccccc1)(c1ccccc1)c1ccccc1)C(=O)O | GI50 at 72 h | nM | 321 |
| Cc1cccc(C(CCC(N)C(=O)O)(c2ccccc2)c2ccccc2)c1 (racemic) | GI50 at 72 h | nM | 38 |
| Cc1ccc(C(SC[C@H](N)C(=O)O)(c2ccccc2)c2ccccc2)cc1 | GI50 at 72 h | nM | 57 |
| Cc1ccc(C(CCC(N)C(=O)O)(c2ccccc2)c2ccccc2)cc1 (racemic) | GI50 at 72 h | nM | 44 |

###

Test system: NCI-H1299
Test: Antiproliferative activity against human NCI-H1299 cells after 72 hrs by Alamar blue assay
Type: functional
Details: NCI-H1299, 72 h
recorded_endpoint: log10 of GI50 (log10 of the value in µM)

| compound | log10 of GI50 |
| --- | --- |
| NCCSC(c1ccccc1)(c1ccccc1)c1ccccc1 | 0.36 |
| Cc1ccc(C(CC[C@@H](N)C(=O)O)(c2ccccc2)c2ccccc2)cc1 | -0.95 |
| NCCCC(c1ccccc1)(c1ccccc1)c1ccc(Cl)cc1 | -0.08 |
| Cc1ccc(C(CCC(N)C(=O)O)(c2ccccc2)c2ccccc2)cc1 (racemic) | -0.69 |
| Cc1ccc(C(SC[C@H](N)C(=O)O)(c2ccccc2)c2ccccc2)cc1 | -0.62 |

###

Quick reference: GI50 at 72 h of the listed items.
Assay: Antiproliferative activity against human hTERT-HME1 cells after 72 hrs by Alamar blue assay
Type: cell-based

| chemical_string | unit_label | GI50 at 72 h |
| --- | --- | --- |
| NCCSC(c1ccccc1)(c1ccccc1)c1ccccc1 | µM | 1.61 |
| N[C@@H](CSC(c1ccccc1)(c1ccccc1)c1ccccc1)C(=O)O | µM | 0.361 |
| N[C@@H](CCC(c1ccccc1)(c1ccccc1)c1ccccc1)C(=O)O | µM | 0.721 |
| Cc1ccc(C(CC[C@H](N)C(=O)O)(c2ccccc2)c2ccccc2)cc1 | µM | 0.049 |
| Cc1cccc(C(CC[C@@H](N)C(=O)O)(c2ccccc2)c2ccccc2)c1 | µM | 0.026 |
